molecular target: T1, cSNK:BSA conjugate (bovine, head-to-tail cyclized; conjugated to BSA carrier); assay: BLI 2:1 fit, site 1; 50 nM row
T1 construct: also called BSA-cSNK
T1 sequence (P02769 25-607 limits assumed): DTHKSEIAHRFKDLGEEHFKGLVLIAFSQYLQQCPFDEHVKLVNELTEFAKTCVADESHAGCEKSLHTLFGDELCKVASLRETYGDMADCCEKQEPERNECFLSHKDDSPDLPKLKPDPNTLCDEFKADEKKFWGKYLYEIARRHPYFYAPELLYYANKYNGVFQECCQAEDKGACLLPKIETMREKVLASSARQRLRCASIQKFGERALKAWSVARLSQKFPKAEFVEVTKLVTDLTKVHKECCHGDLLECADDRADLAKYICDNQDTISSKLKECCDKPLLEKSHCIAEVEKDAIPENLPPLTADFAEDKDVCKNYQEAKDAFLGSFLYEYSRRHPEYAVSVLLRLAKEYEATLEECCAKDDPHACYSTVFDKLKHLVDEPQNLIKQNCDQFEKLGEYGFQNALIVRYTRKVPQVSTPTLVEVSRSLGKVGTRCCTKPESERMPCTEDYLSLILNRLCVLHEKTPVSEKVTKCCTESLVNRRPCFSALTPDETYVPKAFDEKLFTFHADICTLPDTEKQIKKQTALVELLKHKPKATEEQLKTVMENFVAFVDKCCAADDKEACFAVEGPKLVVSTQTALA
experimental-readout: kon (M⁻¹ s⁻¹)
Please give a number only; it is taken to be in M⁻¹ s⁻¹.

Answered examples (3):
Read the entry hu5E3-IgG1 (antibody, V domains shown, human IgG1/kappa; also called humanized 5E3 IgG1; IHA variant) VH: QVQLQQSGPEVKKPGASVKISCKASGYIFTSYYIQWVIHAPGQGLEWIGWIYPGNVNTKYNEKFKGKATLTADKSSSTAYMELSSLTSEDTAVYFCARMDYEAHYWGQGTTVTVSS VL: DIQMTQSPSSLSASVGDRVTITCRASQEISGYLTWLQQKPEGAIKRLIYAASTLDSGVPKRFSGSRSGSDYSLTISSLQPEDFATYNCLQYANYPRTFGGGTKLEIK and write its reported kon. 1.78e+06

Read the entry murine monoclonal antibody 5E3 (antibody, V domains shown, mouse antibody of the 5E3 hybridoma; also called murine 5E3; m5E3) VH: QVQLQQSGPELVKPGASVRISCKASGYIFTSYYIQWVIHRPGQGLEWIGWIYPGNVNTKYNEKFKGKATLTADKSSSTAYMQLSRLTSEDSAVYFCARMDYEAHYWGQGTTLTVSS VL: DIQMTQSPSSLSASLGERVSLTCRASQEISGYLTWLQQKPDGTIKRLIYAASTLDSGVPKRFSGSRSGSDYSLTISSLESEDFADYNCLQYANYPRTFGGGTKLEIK and write its reported kon. 1.29e+06

Supply recorded kon for rehu5E3-IgG4 (antibody, V domains shown, human IgG4/kappa; also called IgG4 rehu version) VH: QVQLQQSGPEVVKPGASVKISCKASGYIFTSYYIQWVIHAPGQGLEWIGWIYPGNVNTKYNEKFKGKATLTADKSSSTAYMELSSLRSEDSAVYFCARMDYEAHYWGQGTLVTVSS VL: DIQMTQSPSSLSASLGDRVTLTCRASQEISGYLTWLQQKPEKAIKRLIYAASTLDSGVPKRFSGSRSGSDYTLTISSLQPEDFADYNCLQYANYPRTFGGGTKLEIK here. 692000

Would you kindly look at the next entry?
Provide one value: measured kon of hu5E3-IgG4 (antibody, V domains shown, human IgG4/kappa; also called humanized 5E3 IgG4) VH: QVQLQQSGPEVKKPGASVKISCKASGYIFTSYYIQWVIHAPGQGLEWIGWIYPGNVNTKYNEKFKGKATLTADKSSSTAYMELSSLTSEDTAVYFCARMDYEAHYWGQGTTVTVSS VL: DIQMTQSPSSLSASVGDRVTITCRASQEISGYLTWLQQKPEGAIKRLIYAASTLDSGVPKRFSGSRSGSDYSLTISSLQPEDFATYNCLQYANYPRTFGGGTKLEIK 868000
